experiment: PK of voruciclib, 2 weeks of daily dosing followed by 1 week without dosing in a 21-day cycle (Table 3); type: in vivo, human; settings: human, plasma, oral, 75 mg, Day 1, 2 weeks daily dosing/1 week off, mean; read-out: AUC0-24
Property measured: AUC(0-t) (ng·h/mL)
Give bare numbers, in ng·h/mL.

Per the record, CN1CC[C@@H](c2c(O)cc(O)c3c(=O)cc(-c4ccc(C(F)(F)F)cc4Cl)oc23)[C@@H]1CO [Voruciclib] has AUC(0-t) of 2280

* * *

assay: PK of voruciclib, 2 weeks of daily dosing followed by 1 week without dosing in a 21-day cycle (Table 3); format: in vivo, human; conditions: human, plasma, oral, 300 mg, Day 1, 2 weeks daily dosing/1 week off, mean; read-out: AUC0-t
Property measured: AUC(0-t) (ng·h/mL)
Numbers only, in ng·h/mL.

Per the record, "CN1CC[C@@H](c2c(O)cc(O)c3c(=O)cc(-c4ccc(C(F)(F)F)cc4Cl)oc23)[C@@H]1CO" has AUC(0-t) of 15700
